systemName: T1, human ICOS (human, UniProt Q9Y6W8 21-199)
T1 construct: The cell that carries it is named under assay; also called huICOS; CD278
T1 sequence: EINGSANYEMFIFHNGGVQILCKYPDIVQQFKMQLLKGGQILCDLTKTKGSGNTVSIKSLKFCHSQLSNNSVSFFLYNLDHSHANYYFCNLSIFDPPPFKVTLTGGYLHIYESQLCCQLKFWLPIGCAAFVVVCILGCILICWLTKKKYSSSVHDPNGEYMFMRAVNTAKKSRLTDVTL
protocolSummary: flow cytometry, CHO cells expressing human ICOS
Entries and their EC50
Give the number; nM is assumed, so skip it.

The binder listed as Molecule 34 (ICOS H1138_2) (antibody, human IgG1, kappa, L234A L235A, V domains shown, Human IgG format) VH: EVQLLESGGGLVQPGGSLRLSCAASGFDLSSYYYMSWVRQAPGKGLEWVSSIYADIYGGTTHYASWAKGRFTISRDNSKNTLYLQMNSLRAEDTAVYFCAREDGSRYGGSGYYNLWGQGTLVTVSS VL: AIQMTQSPSSLSASVGDRVTITCRASQNIYSNLAWYQQKPGKPPKLLIYAASYLTSGVSSRFSGSGSGTDFTLTISSLQPEDFATYYCQQGHTTDNIDNAFGGGTKVEIKR shows EC50 equal to 10.2

The binder listed as Molecule 33 (ICOS H1138_1) (antibody, human IgG1, kappa, L234A L235A, V domains shown, Human IgG format) VH: EVQLLESGGGLVQPGGSLRLSCAASGFDLSSYYYMSWVRQAPGKGLEWVSSIYADIYGGTTHYASWAKGRFTISKTSSKTTLYLQMNSLRAEDTAVYFCAREDGSRYGGSGYYNLWGQGTLVTVSS VL: DIQMTQSPSSLSASVGDRVTITCRASQNIYSNLAWYQQKPGQPPKLLIYAASYLTSGVPSRFSGSGSGTDFTLTISSLQPEDFATYYCQQGHTTDNIDNAFGGGTKVEIKR shows EC50 equal to 7.58

The binder listed as Molecule 27 (ICOS H009v1_3) (antibody, human IgG1, kappa, L234A L235A, V domains shown, Human IgG format) VH: EVQLVESGGGLVQPGRSLRLSCTASGFTFSDYWMNWVRQAPGKGLEWVAQIRNKPYNYETYYAASVKGRFTISRDDSKSIAYLQMNSLKTEDTAVYYCTWPRLRSSDWHFDVWGKGTTVTVSS VL: DIQMTQSPSSLSASVGDRVTITCQASQDINKNIAWYQQKPGKAPKLLIWYTSTLQTGVPSRFSGSGSGTDFTFTISSLQPEDIATYYCLQFDNLYTFGQGTKLEIKR shows EC50 equal to 2.7

The binder listed as Molecule 28 (ICOS 1143v2) (antibody, human IgG1, kappa, L234A L235A, V domains shown, Human IgG format; also called parent antibody of Molecules 29-31) VH: QSLEESGGDLVKPGASLTLTCKASGFDFSSAYDMSWVRQAPGKGLEWIGVIYYGDGITYYATSVKGRFTISKTSSTTVPLQMTSLTAADTATYFCARGAFLGSSYYLSLWGQGTLVTVSS VL: AIDMTQTPASVEAAVGGTVTINCQASENIYNWLAWYQQKPGQPPKLLIYDASKLASGVPSRFSASGSGTQFTLTISAVESADAATYYCQQAYTYGNIDNAFGGGTEVVVSR shows EC50 equal to 2.56

Here's the next entry for you.
The binder listed as Molecule 29 (ICOS H1143v2_1) (antibody, human IgG1, kappa, L234A L235A, V domains shown, Human IgG format) VH: EVQLLESGGGLVQPGGSLRLSCAASGFDFSSAYDMSWVRQAPGKGLEWVSVIYYGDGITYYADSVKGRFTISRDNSKNTLYLQMNSLRAEDTAVYFCARGAFLGSSYYLSLWGQGTLVTVSS VL: DIQMTQSPSSLSASVGDRVTITCRASENIYNWLAWYQQKPGKAPKLLIYDASKLASGVPSRFSGSGSGTDFTLTISSLQPEDFATYYCQQAYTYGNIDNAFGGGTKVEIKR shows EC50 equal to 5.2
